assayed.system: Chromo domain-containing protein 1 (Saccharomyces cerevisiae (strain ATCC 204508 / S288c) (Baker's yeast))
run.description: ScCHD-1 Enzyme Inhibition Assay
Type: functional
Parameters: scale not given: in the data most compounds retested in dose-response had high values
run.parameters: 30 µM
measurement.name: Percent Effect (%)
Provide the reading as a plain figure in %.

Worked examples follow.
CC(=O)N1CCCN(C(=O)c2csc(-c3ccc(C)cc3C)n2)CC1
-6.02
COc1ccc(CN(C)[C@@H]2CN(C(=O)c3cccs3)C[C@H]2O)cc1
-9
O=S(=O)(Nc1cnn(C2CCOCC2)c1)c1c(F)cccc1F
-4.35
CC(C)C(Sc1nnc(C2CC2)n1C1CC1)C(=O)NCc1cccnc1 (stereo not given)
-8.74

Would you kindly look at the next entry?
[Q] Supply recorded Percent Effect for "O=C(CCCn1cncn1)NC1(c2ccccc2)CCC1" here.
[A] -1
